system: Plasmodium falciparum; assay: Antiplasmodial activity against chloroquine-resistant Plasmodium falciparum W2 gametocytes after 48 hrs by microscopy; format: functional, organism-based; settings: W2, 48 h
measure: pIC50
pIC50 (log units): -log10 of the concentration in mol/L.

Any idea what its pIC50 is? The compound is Cc1nc2c(ccc3cccnc32)c2[nH]ccc12 4.97

Consider the compound shown here: COc1cc2cccnc2c2nc(C)c3cc[nH]c3c12 What is its recorded pIC50? 5.01

Requested read-out: pIC50. Entry: COc1cc2cccnc2c2nc(C)c3ccoc3c12 5.43

Entry under review: Cc1nc2c(ccc3cccnc32)c2occc12 . Reported pIC50? 5.26
